Molecular target: RanGTP-importin-beta complex (human Ran / KPNB1)
Assay: disruptors of RanGTP/KPNB1 binding – biochemical, FRET, CFP/YFP, cell-free homogeneous, confirmation (AID 2823)
Conditions: CFP-Ran/YFP-importin-beta FRET ratio
The source made the active and inactive calls. The rule behind the calls is not given here.
Choose one outcome from this list and give only that: active, inactive

Exercise: Dear all, I need the recorded test outcome for NS(=O)(=O)c1ccc(N=Nc2c[nH]c(=O)c(O)c2)cc1 , thank you.
Solution: inactive

Exercise: Dear all, I need the recorded test outcome for COC(=O)CCC(=O)OC1(C)C(=O)C=C2C=C(C3CC3)N(Cc3ccc(OC)cc3)C=C2C1=O (stereo unspecified) , thank you.
Solution: active

Exercise: Dear all, I need the recorded test outcome for C=CCn1c(N)c(C(=O)OC(C)CC)c2nc3ccccc3nc21 (stereo unspecified) , thank you.
Solution: active

Exercise: Dear all, I need the recorded test outcome for COc1ccc(-c2cc(C(=O)O)nc3ccc4ccccc4c23)cc1OC , thank you.
Solution: inactive

Exercise: Dear all, I need the recorded test outcome for CC(=O)Nc1cccc(C(=O)N/N=C/c2ccc(F)cc2)c1 , thank you.
Solution: inactive

Exercise: Dear all, I need the recorded test outcome for Cc1ccc(C(=O)NCc2ccco2)cc1S(=O)(=O)N1CCOCC1 , thank you.
Solution: inactive

Exercise: Dear all, I need the recorded test outcome for Cc1cccc(/C=N/c2sc3c(c2C#N)CCN(Cc2ccccc2)C3)c1O , thank you.
Solution: inactive

Exercise: Dear all, I need the recorded test outcome for CCn1c(SCc2nc(-c3ccccc3)no2)nnc1-c1cccs1 , thank you.
Solution: inactive

Exercise: Dear all, I need the recorded test outcome for Cc1ccc(Cn2ccc(NC(=O)c3noc4c3CCc3ccccc3-4)n2)cc1 , thank you.
Solution: inactive

Exercise: Dear all, I need the recorded test outcome for CCOc1ccc2nc(SCC(=O)NCc3ccc4c(c3)OCO4)[nH]c2c1 , thank you.
Solution: inactive

Exercise: Dear all, I need the recorded test outcome for OCCNc1c2ccccc2nc2ccccc12 , thank you.
Solution: active

Exercise: Dear all, I need the recorded test outcome for COc1ccc(CCNc2nc3ccccc3n3nnnc23)cc1OC , thank you.
Solution: active

Exercise: Dear all, I need the recorded test outcome for COCCCn1c(=N)c(C(=O)NCc2ccc3c(c2)OCO3)cc2c(=O)n3ccccc3nc21 , thank you.
Solution: active

Exercise: Dear all, I need the recorded test outcome for CC(=O)c1cc(C#N)c(N2CC(C)OC(C)C2)nc1C (stereo unspecified) , thank you.
Solution: inactive

Exercise: Dear all, I need the recorded test outcome for Cc1ccc2cc(C#N)c(N3CCCC3)nc2c1C , thank you.
Solution: inactive

Exercise: Dear all, I need the recorded test outcome for O=C(O)c1ccccc1P(=O)(c1ccccc1)c1ccccc1 , thank you.
Solution: inactive

Exercise: Dear all, I need the recorded test outcome for CC(O)CNc1nc2ccccc2n1CC(=O)NC12CC3CC(CC(C3)C1)C2 (stereo unspecified) , thank you.
Solution: inactive

Exercise: Dear all, I need the recorded test outcome for N#Cc1c(/N=C/c2ccc(O)cc2O)sc2c1C1CCN2CC1 , thank you.
Solution: inactive

Exercise: Dear all, I need the recorded test outcome for O=[N+]([O-])c1cccc(-c2n[nH]c(=S)n2-c2ccc(Br)cc2)c1 , thank you.
Solution: inactive

Exercise: Dear all, I need the recorded test outcome for Cc1cccc(NC(=O)c2cc3c(s2)-c2c(C)cccc2OC3)n1 , thank you.
Solution: active

Exercise: Dear all, I need the recorded test outcome for O=Cc1ccc(N2Cc3ccccc3C2)cc1 , thank you.
Solution: inactive

Exercise: Dear all, I need the recorded test outcome for COc1ccc2c(CC#N)c[nH]c2c1 , thank you.
Solution: inactive

Exercise: Dear all, I need the recorded test outcome for O=C(NNc1c2ccccc2nc2ccccc12)c1ccc(O)cc1O , thank you.
Solution: inactive

Exercise: Dear all, I need the recorded test outcome for N#Cc1c(N)[nH]c(=S)c(C#N)c1-c1ccccc1 , thank you.
Solution: inactive

Exercise: Dear all, I need the recorded test outcome for COc1ccccc1C1C(C(N)=O)=C(C)Nc2ncnn21 (stereo unspecified) , thank you.
Solution: inactive

Exercise: Dear all, I need the recorded test outcome for CN1CCCN(C(=O)Cc2c(Cl)cccc2Cl)c2nc3ccccc3nc21 , thank you.
Solution: active

Exercise: Dear all, I need the recorded test outcome for Cc1ccc(C)c(NC(=S)N(C)CCc2ccccn2)c1 , thank you.
Solution: inactive

Exercise: Dear all, I need the recorded test outcome for COCCNC(=O)c1c(NC(=O)c2ccco2)n(Cc2ccccc2)c2nc3ccccc3nc12 , thank you.
Solution: active

Exercise: Dear all, I need the recorded test outcome for CN1CCN(c2cc(=O)n(-c3ccc(Cl)cc3)c(=O)[nH]2)CC1 , thank you.
Solution: inactive

Exercise: Dear all, I need the recorded test outcome for COC(=O)C1=CN(C2CC2)C=C(C(=O)OC)C1c1ccc(C(F)(F)F)cc1 , thank you.
Solution: active

Exercise: Dear all, I need the recorded test outcome for COc1ccc(C(=O)NCCNc2nc3c(C)cccc3cc2C#N)cc1 , thank you.
Solution: active

Exercise: Dear all, I need the recorded test outcome for Cc1ccc(C2NC(=O)c3c(sc(C)c3C)N2)c(O)c1 (stereo unspecified) , thank you.
Solution: inactive

Exercise: Dear all, I need the recorded test outcome for CCC(c1nnnn1C1CCCC1)N1CCC(C(N)=O)CC1 (stereo unspecified) , thank you.
Solution: inactive

Exercise: Dear all, I need the recorded test outcome for CC1=NN(C(=O)c2ccccc2)C(O)(c2ccc(Br)cc2)C1 (stereo unspecified) , thank you.
Solution: inactive

Exercise: Dear all, I need the recorded test outcome for Cc1cccc(Oc2nc(-c3cccc([N+](=O)[O-])c3)nc3ccccc23)c1C , thank you.
Solution: inactive

Exercise: Dear all, I need the recorded test outcome for COC(=O)c1ccc2nc(NC(=O)C(C)(C)C)sc2c1 , thank you.
Solution: inactive

Exercise: Dear all, I need the recorded test outcome for N#Cc1ccc(/C=C(\C(=O)C(=O)O)c2ccc3ccccc3n2)cc1 , thank you.
Solution: active

Exercise: Dear all, I need the recorded test outcome for COc1ccc(-c2csc3ncnc(N4CCN(c5ccc(OC)cc5)CC4)c23)cc1 , thank you.
Solution: inactive

Exercise: Dear all, I need the recorded test outcome for CC1CN(Cc2cc(=O)oc3cc(O)ccc23)CC(C)O1 (stereo unspecified) , thank you.
Solution: active

Exercise: Dear all, I need the recorded test outcome for Cc1cc(Nc2ccccc2)nn1C(=O)c1ccccc1 , thank you.
Solution: inactive

Exercise: Dear all, I need the recorded test outcome for Cc1ccc(Cl)cc1-n1c(=O)cc(N2CC(C)OC(C)C2)[nH]c1=O (stereo unspecified) , thank you.
Solution: inactive

Exercise: Dear all, I need the recorded test outcome for Cc1nc2nc(CCNS(=O)(=O)c3ccc(Cl)cc3)cn2nc1C , thank you.
Solution: active

Exercise: Dear all, I need the recorded test outcome for NS(=O)(=O)c1cccc(NC(=O)CCSc2ccc(Cl)cc2)c1 , thank you.
Solution: inactive

Exercise: Dear all, I need the recorded test outcome for O=C(CSc1nnc(-c2ccc(F)cc2)o1)Nc1ccc(S(=O)(=O)N2CCCC2)cc1 , thank you.
Solution: inactive

Exercise: Dear all, I need the recorded test outcome for O=C(CCN1C(=O)COc2ccccc21)N1CCCCC1 , thank you.
Solution: inactive

Exercise: Dear all, I need the recorded test outcome for CC(C)c1ccccc1NC(=O)C1C2C=CC(C2)C1C(=O)O (stereo unspecified) , thank you.
Solution: inactive

---

Biological target: RanGTP-importin-beta complex (human Ran / KPNB1)
Assay: disruptors of RanGTP/KPNB1 binding – biochemical, FRET, CFP/YFP, cell-free homogeneous, confirmation (AID 2823)
Conditions: CFP-Ran/YFP-importin-beta FRET ratio
Calls of active or inactive are those of the source. How the calls were made is not given here.
Choose one outcome from this list and give only that: TRUE = active, FALSE = inactive

Exercise: Dear all, I need the recorded test outcome for O=C(c1ccco1)c1cc2c(ccc3ccccc32)oc1=O , thank you.
Solution: TRUE

Exercise: Dear all, I need the recorded test outcome for Cc1noc(C)c1C(=O)Nc1sc2c(c1C(N)=O)CCC2 , thank you.
Solution: FALSE

Exercise: Dear all, I need the recorded test outcome for Cc1sc(NC(=O)c2oc3ccccc3c2C)c(C#N)c1C , thank you.
Solution: FALSE

Exercise: Dear all, I need the recorded test outcome for COc1ccc(N2C(=O)c3ccccc3NC2c2cccnc2)cc1 (configuration not stated) , thank you.
Solution: FALSE

Exercise: Dear all, I need the recorded test outcome for CCOC(=O)/C=C1\SCC(=O)N1CC(=O)c1ccc[nH]1 , thank you.
Solution: FALSE

Exercise: Dear all, I need the recorded test outcome for CCOC(=O)CC(=O)CSc1nc2c(cc1C#N)CCC2 , thank you.
Solution: TRUE

Exercise: Dear all, I need the recorded test outcome for O=S(=O)(Cc1ccc(Cl)cc1)Nc1ccc2c(c1)OCO2 , thank you.
Solution: FALSE

Exercise: Dear all, I need the recorded test outcome for CN(C)Cc1c(O)ccc2c3c(c(=O)oc12)CCCCC3 , thank you.
Solution: TRUE

Exercise: Dear all, I need the recorded test outcome for COc1cc(C(=O)NCCCNc2nc3cc(C)cc(C)c3cc2C#N)cc(OC)c1OC , thank you.
Solution: TRUE

Exercise: Dear all, I need the recorded test outcome for O=C(O)Cn1cc(/C=C2\SC(=O)N(c3ccccc3)C2=O)c2ccccc21 , thank you.
Solution: TRUE

Exercise: Dear all, I need the recorded test outcome for COc1ccc(Cn2c(O)c(C=Nc3ccc(OC)cc3)c3ccccc3c2=O)cc1 , thank you.
Solution: FALSE

Exercise: Dear all, I need the recorded test outcome for COc1cc2c(cc1OC)CN(Cc1cccs1)CC2 , thank you.
Solution: FALSE
